# target-entity: human TYR (Homo sapiens)
# test: TYR inhibitory activity by modified MBTH (3-methyl-2-benzothiazolinone hydrazine) method
# Format: biochemical
# experimental-context: compound concentration 2 µg/mL; levodopa oxidized by human TYR, MBTH chromogenic reagent, absorbance at 505 nm
observed-property: inhibition at 2 µg/mL
Give your result as the value with the unit written after it.

Lookup: Given `CC(=O)C(=O)Nc1nc(-c2ccc(O)cc2O)cs1` , state its recorded inhibition at 2 µg/mL.
Found: 92.6%

Proceed to the following item.
Lookup: GET /values?readout=inhibition at 2 µg/mL&item= `O=C(Nc1nc(-c2ccc(O)cc2O)cs1)C(=O)N1CCOCC1`
Found: 86.1%

---

# target-entity: UniProtKB P14679
# Sequence (P14679 19-529): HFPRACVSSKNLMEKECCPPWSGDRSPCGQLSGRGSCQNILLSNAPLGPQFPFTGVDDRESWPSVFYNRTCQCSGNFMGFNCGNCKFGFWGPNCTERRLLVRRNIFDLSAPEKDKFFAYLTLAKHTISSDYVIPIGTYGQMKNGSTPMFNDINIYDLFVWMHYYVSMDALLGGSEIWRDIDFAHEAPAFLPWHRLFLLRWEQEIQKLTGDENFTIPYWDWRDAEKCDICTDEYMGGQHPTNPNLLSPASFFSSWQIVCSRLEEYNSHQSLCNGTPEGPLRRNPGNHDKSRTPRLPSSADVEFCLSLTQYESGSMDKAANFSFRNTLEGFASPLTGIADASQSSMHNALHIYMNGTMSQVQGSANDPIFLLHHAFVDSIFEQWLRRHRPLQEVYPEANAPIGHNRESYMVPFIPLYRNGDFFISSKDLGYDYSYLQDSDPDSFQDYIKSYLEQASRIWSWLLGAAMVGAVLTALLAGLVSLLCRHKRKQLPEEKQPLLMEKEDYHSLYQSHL
# test: TYR inhibitory activity by modified MBTH (3-methyl-2-benzothiazolinone hydrazine) method
# Type: biochemical
# experimental-context: compound concentration 2 µg/mL; levodopa oxidized by human TYR, MBTH chromogenic reagent, absorbance at 505 nm
Values of inhibition at 2 µg/mL greater than or equal to 90% map to rule met; values below map to rule not met.

A selection of reference data follows.
Lookup: Determine whether measured inhibition at 2 µg/mL meets or exceeds 90% for `O=C(Nc1nc(-c2ccc(O)cc2O)cs1)C(=O)N1CCSCC1`
Found: rule not met

Lookup: Say whether `CC(C)NC(=O)C(=O)Nc1nc(-c2ccc(O)cc2O)cs1` shows inhibition at 2 µg/mL of 90% or more.
Found: rule met

Lookup: Is the recorded value of inhibition at 2 µg/mL equal to or greater than 90% for this compound? `O=C(Nc1nc(-c2ccc(O)cc2O)cs1)C(=O)OC1CC1`
Found: rule not met

Lookup: Answer whether inhibition at 2 µg/mL of `O=C(Nc1nc(-c2ccc(O)cc2O)cs1)C(=O)C1CCCCC1` is greater than or equal to 90%.
Found: rule not met

Lookup: inhibition at 2 µg/mL >= 90% for `CC(C)C(=O)C(=O)Nc1nc(-c2ccc(O)cc2O)cs1` ?
Found: rule not met

Others:
Lookup: Does the compound `O=C(Nc1nc(-c2ccc(O)cc2O)cs1)C(=O)N1CCCC1` have recorded inhibition at 2 µg/mL that is 90% or more?
Found: rule met

Lookup: Given the entry `O=C(Nc1nc(-c2ccc(O)cc2O)cs1)C(=O)C1CC1` , answer whether its inhibition at 2 µg/mL meets or surpasses 90%.
Found: rule not met

---

# target-entity: human TYR (Homo sapiens, UniProt P14679)
# test: TYR inhibitory activity by modified MBTH (3-methyl-2-benzothiazolinone hydrazine) method
# Assay type: biochemical
# experimental-context: compound concentration 2 µg/mL; levodopa oxidized by human TYR, MBTH chromogenic reagent, absorbance at 505 nm
observed-property: inhibition at 2 µg/mL (%)
Numbers only here, please. The scale is %.

Lookup: # input compound: `CCN(CC)C(=O)C(=O)Nc1nc(-c2ccc(O)cc2O)cs1` ; wanted: its inhibition at 2 µg/mL
Found: 89.2

Lookup: inhibition at 2 µg/mL for `CN(C)C(=O)C(=O)Nc1nc(-c2ccc(O)cc2O)cs1` ?
Found: 90.7

Lookup: Any idea what inhibition at 2 µg/mL was measured for `CCC(=O)C(=O)Nc1nc(-c2ccc(O)cc2O)cs1` ?
Found: 90

Lookup: Can you share its inhibition at 2 µg/mL? I mean this compound: `COC(=O)C(=O)Nc1nc(-c2ccc(O)cc2O)cs1`
Found: 88.1

Okay, now this compound:
Lookup: GET /values?readout=inhibition at 2 µg/mL&item= `CCOC(=O)C(=O)Nc1nc(-c2ccc(O)cc2O)cs1`
Found: 89.6
